Test system: Penicillium chrysogenum
Assay: Antifungal activity against Penicillium chrysogenum Thom AUCC 530 at 1 mg/mL after 48 hrs by agar diffusion assay
Assay type: functional
Conditions: Thom AUCC 530, 48 h, read-out: DIZ
property-measured: zone of inhibition at 1000 µg/mL (mm)
// return numeric value only (unit: mm, not printed)

Prompt: Fill in: zone of inhibition at 1000 µg/mL of O=C1CSC(=S)N1c1ccc(S(=O)(=O)Nc2ncccn2)cc1 is ___
Response: 35

Prompt: Also check NS(=O)(=O)c1ccc(N2C(=O)CSC2=S)cc1
Response: 16

Prompt: Also check Cc1ccc(/C=C2/SC(=S)N(c3ccc(S(N)(=O)=O)cc3)C2=O)cc1
Response: 10

Prompt: Also check CN(C)/C=N/S(=O)(=O)c1ccc(N2C(=O)/C(=C\N(C)C)SC2=S)cc1
Response: 16
